Biological target: Voltage-gated potassium channel subunit beta-2 (Rattus norvegicus)
Experiment: KvBeta positive modulators, primary screen, biochemical, NADPH fluorescence (AID 623);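 also: fluorescence intensity change per second fitted from 20 to 320 s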
Details: Recombinant KvBeta, NADPH fluorescence decrease slope, 10 min; at 10 µM; active compounds read low
measured_quantity: NADPH fluorescence slope

* CCCSc1nc(O)c(C2OC(=O)c3c2ccc(OC)c3OC)c(=O)n1C (centres undefined) | -3.7e-05
* CCn1c(SCC(=O)N2CCOCC2)nc2sc3c(c2c1=O)CCCC3 | -0.000111
* CC(NC(=O)Nc1ccc(O)cc1)(C(F)(F)F)C(F)(F)F | -4.3e-05
* c1ccc2c(Cn3ccnc3)c[nH]c2c1 | -0.000163
* O=C(Nc1ncc(Br)s1)C1CCCN1S(=O)(=O)c1cccc2cccnc12 (centres undefined) | -2.2e-05
* COCC(=O)Nc1c(C(=O)Nc2ccccc2OC)oc2ccccc12 | 1.2e-05
* Cc1nn2cnc3sc4c(c3c2nc1=O)CCCC4 | -2.5e-05
* CCCN1CCC(NC(=O)Nc2ccc(OC)c(OC)c2)CC1 | 1.9e-05
* O=C1c2cccnc2C(=O)N1c1cccc(-c2nc3ccccc3o2)c1 | -4e-05
* COc1cc(C2C(C(C)=O)=C(O)C(=O)N2c2ccc(Br)cn2)ccc1O (centres undefined) | -0.000114
* N#Cc1c(N)nc2c(c1-c1ccncc1)CCCCC2 | -5.4e-05
* COc1ccc(C(=O)Nn2c(C3CCC3)nc3ccccc3c2=O)c(OC)c1 | -7.6e-07
* c1ccc(-c2noc(C3CCCCC3)n2)nc1 | -2.4e-05
* Cc1cc(Cl)ccc1OCCCC(=O)NO | -1.1e-05
* COC(=O)CC(=O)Cc1nc(N)nc(Nc2ccc(C)c(C)c2)n1 | -3e-05
* CCCn1nc(CC(=O)O)c2ccccc2c1=O | -3.1e-05
* COc1ccc(Nc2cc(C)nc(-n3nc(C)cc3C)n2)cc1 | -2.8e-05
* C[C@H](NC(=O)NCc1cccs1)C(=O)O | -5.7e-05
* COc1ccc(CC(=O)Nc2cccc(-c3nnc(-c4ccco4)o3)c2)cc1 | -8e-05
* O=C(CSc1nnc2scc(-c3ccccc3)n12)Nc1nsc(-c2ccccc2)n1 | 1.4e-05
* O=C(CN1CCN(Cc2ccc3c(c2)OCO3)CC1)Nc1ccc2c(c1)OCCO2 | -4.2e-05
* COc1ccc(C)cc1-n1nnnc1SCC(=O)Nc1cc(C)on1 | -3.5e-05
* CC(C(N)=O)N1C(=O)C2C3C=CC(C3)C2C1=O (centres undefined) | -2.4e-05
* CCOC(=O)C1=C(c2ccccc2)N2CCN=C2S1 | -1.6e-06

---

# fluorescence slope values compiled below
Target: Voltage-gated potassium channel subunit beta-2 (Rattus norvegicus) (UniProt P62483)
Sequence (P62483 whole entry, looked up): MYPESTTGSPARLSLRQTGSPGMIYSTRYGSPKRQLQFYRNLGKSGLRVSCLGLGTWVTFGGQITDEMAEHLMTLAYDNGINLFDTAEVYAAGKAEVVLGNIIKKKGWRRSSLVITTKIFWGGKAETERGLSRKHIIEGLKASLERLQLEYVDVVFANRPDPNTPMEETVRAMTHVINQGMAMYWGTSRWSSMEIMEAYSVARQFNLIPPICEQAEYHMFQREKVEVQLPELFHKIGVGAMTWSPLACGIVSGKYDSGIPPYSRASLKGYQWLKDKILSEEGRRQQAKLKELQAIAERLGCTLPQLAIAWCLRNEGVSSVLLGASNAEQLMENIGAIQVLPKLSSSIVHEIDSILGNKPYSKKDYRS
Assay: KvBeta enzyme negative modulators, primary screen, biochemical, NADPH fluorescence (AID 622);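 also: slope of raw intensity against log time taken from 70 to 1610 s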
Settings: recombinant KvBeta, 4-cyanobenzaldehyde reduction, at 10 µM, active compounds read high
Active and inactive are the calls of the source.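 The calls were made as follows: active = fluorescence slope higher than the sample average by over 3 SD (cut at about -0.22 in these data, passing the limit was not always enough); inactive = the rest.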
measured_quantity: fluorescence slope

- O=c1[nH]cnc2c1C1(CCCC1)Cc1ccccc1-2: -0.274 (inactive)
- O=c1[nH]c(NCc2ccco2)nnc1Cc1ccccc1Cl: -0.515 (inactive)
- Cc1nnc2n(-c3ccccc3)c(=O)c3c4c(sc3n12)COC(C)(C)C4: -0.48 (inactive)
- CCCCCSc1nc(C)c(CC(=O)O)c(=O)[nH]1: -0.477 (inactive)
- COc1ccc(C(=O)NCc2ccccc2OC)cc1: -0.47 (inactive)
- CCOC(=O)C1CCN(Cc2ccc(F)c(Br)c2)CC1: -0.414 (inactive)
